# Test system: K562
# Experiment summary: Growth inhibition of human K562 cells assessed as reduction in cell viability measured after 48 hrs by SRB assay
# Format: functional
Lab note: compare GI50 with 2000 nM, writing true (1) if less and false (0) if equal or more.

| Chemical smiles | Label value |
| --- | --- |
| CC(C)(C)n1cc(-c2ccnc(NCCCNS(=O)(=O)c3cccc4ccccc34)c2)c(-c2cccc(O)c2)n1 | true (1) |
| O=C1c2ccccc2-c2n[nH]c3cccc1c23 | false (0) |

State whether 2000 nM exceeds GI50 recorded for CC(C)(C)n1cc(-c2ccnc(NCCCNS(=O)(=O)c3ccc(Cl)cc3)c2)c(-c2cccc(O)c2)n1 . true (1)

Regarding CC(C)(C)n1cc(-c2ccnc(NCCCNS(=O)(=O)c3ccc(C(F)(F)F)cc3)c2)c(-c2cccc(O)c2)n1 , kindly confirm whether its GI50 is beneath 2000 nM. false (0)

====

# Test system: OVCAR-4
# Experiment summary: Growth inhibition of human OVCAR-4 cells assessed as reduction in cell viability measured after 48 hrs by SRB assay
# Type: functional
Measured parameter: GI50 (µM)
Numbers only, in µM.

| Chemical smiles | Measured parameter | Endpoint unit | Measured value |
| --- | --- | --- | --- |
| O=C1c2ccccc2-c2n[nH]c3cccc1c23 | GI50 | µM | 31.9 |
| CC(C)(C)n1cc(-c2ccnc(NCCCNS(=O)(=O)c3ccc(Cl)cc3)c2)c(-c2cccc(O)c2)n1 | GI50 | µM | 1.94 |
| CC(C)(C)n1cc(-c2ccnc(NCCCNS(=O)(=O)c3ccc(C(F)(F)F)cc3)c2)c(-c2cccc(O)c2)n1 | GI50 | µM | 2.29 |
| CC(C)(C)n1cc(-c2ccnc(NCCCNS(=O)(=O)c3cccc4ccccc34)c2)c(-c2cccc(O)c2)n1 | GI50 | µM | 1.92 |

Entry CC(C)(C)n1cc(-c2ccnc(NCCCNS(=O)(=O)c3ccc(Br)cc3)c2)c(-c2cccc(O)c2)n1 needs its GI50 filled in; supply it. 1.91

====

# Tested on: SF-295
# Experiment summary: Growth inhibition of human SF-295 cells assessed as reduction in cell viability measured after 48 hrs by SRB assay
# Assay type: functional
Measured parameter: GI50 (µM)
Numbers only, in µM.

| Chemical smiles | Endpoint unit | GI50 |
| --- | --- | --- |
| O=C1c2ccccc2-c2n[nH]c3cccc1c23 | µM | 22.5 |
| CC(C)(C)n1cc(-c2ccnc(NCCCNS(=O)(=O)c3ccc(Br)cc3)c2)c(-c2cccc(O)c2)n1 | µM | 1.71 |
| CC(C)(C)n1cc(-c2ccnc(NCCCNS(=O)(=O)c3ccc(Cl)cc3)c2)c(-c2cccc(O)c2)n1 | µM | 1.79 |

Could I get GI50 for every one of these entries?
1. CC(C)(C)n1cc(-c2ccnc(NCCCNS(=O)(=O)c3ccc(C(F)(F)F)cc3)c2)c(-c2cccc(O)c2)n1
2. CC(C)(C)n1cc(-c2ccnc(NCCCNS(=O)(=O)c3cccc4ccccc34)c2)c(-c2cccc(O)c2)n1

[1.69, 1.8]

====

# Tgt: Mitogen-activated protein kinase 8 (Homo sapiens)
# Sequence (P45983 whole entry): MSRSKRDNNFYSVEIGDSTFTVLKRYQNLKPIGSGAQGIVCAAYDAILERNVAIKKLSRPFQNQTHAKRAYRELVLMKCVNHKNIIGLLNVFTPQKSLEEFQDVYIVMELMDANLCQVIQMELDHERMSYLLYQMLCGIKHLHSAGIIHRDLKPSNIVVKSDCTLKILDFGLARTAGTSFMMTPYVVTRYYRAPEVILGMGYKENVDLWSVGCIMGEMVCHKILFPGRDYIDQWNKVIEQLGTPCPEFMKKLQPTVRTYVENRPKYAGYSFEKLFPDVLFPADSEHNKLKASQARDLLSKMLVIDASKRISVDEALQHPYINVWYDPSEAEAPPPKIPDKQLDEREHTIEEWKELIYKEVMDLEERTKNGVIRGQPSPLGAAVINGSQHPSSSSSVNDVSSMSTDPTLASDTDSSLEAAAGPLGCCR
# Experiment summary: Inhibition of human JNK1 at 10 uM in presence of ATP relative to control
Measured parameter: inhibition (%)
Answers are plain numbers, in %.

Field: example entries. Status: answers known.
| Chemical smiles | Measured parameter | Endpoint unit | Measured value |
| --- | --- | --- | --- |
| CC(C)(C)n1cc(-c2ccnc(NCCNS(=O)(=O)c3ccc(Cl)cc3)c2)c(-c2cccc(O)c2)n1 | inhibition | % | 78.7 |
| CC(C)(C)n1cc(-c2ccnc(NCCNS(=O)(=O)c3ccc(Br)cc3)c2)c(-c2cccc(O)c2)n1 | inhibition | % | 74 |
| COc1cccc(-c2nn(C(C)(C)C)cc2-c2ccnc(NCCNS(=O)(=O)c3ccc(F)cc3)c2)c1 | inhibition | % | 3.91 |
| COc1cccc(-c2nn(C(C)(C)C)cc2-c2ccnc(NCCNS(=O)(=O)c3ccc(C)cc3)c2)c1 | inhibition | % | 4.68 |
| CC(C)(C)n1cc(-c2ccnc(NCCCNS(=O)(=O)c3cccc4ccccc34)c2)c(-c2cccc(O)c2)n1 | inhibition | % | 100 |
| COc1ccc(S(=O)(=O)NCCCNc2cc(-c3cn(C(C)(C)C)nc3-c3cccc(OC)c3)ccn2)cc1 | inhibition | % | 49.2 |
| COc1cccc(-c2nn(C(C)(C)C)cc2-c2ccnc(NCCCNS(=O)(=O)c3ccc(Cl)cc3)c2)c1 | inhibition | % | 79.6 |

In the following, a different compound is considered.
Quickly give me recorded inhibition for CC(C)(C)n1cc(-c2ccnc(NCCCNS(=O)(=O)c3ccc(Br)cc3)c2)c(-c2cccc(O)c2)n1 98.8

Numbers sourced from ChEMBL document CHEMBL5634117.
